Assay Target: T1, biotinylated synthetic human Amyloid beta 1-42 peptide (human, UniProt P05067 672-713, biotinylated (N-terminal biotin in Example 4))
T1 construct: domain: Amyloid beta 1-42 peptide; Numbers 1-42 count on the Amyloid beta peptide, not on APP; also called biotinylated human Amyloid beta 1-42; N-terminal biotin Abeta 1-42
T1 sequence (P05067 672-713 limits assumed): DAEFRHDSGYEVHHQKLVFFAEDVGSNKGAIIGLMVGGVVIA
Assay Text: SPR (ProteOn); biotinylated peptide on streptavidin chip, scFv in solution
Some binders, each annotated with its measured pKd.
FYI, pKd means -log10 of a concentration in mol per litre.

Entry Abet0378 scFv (scFv, V domains shown, not shown: small tags and cut ends) VH: EVQLLESGGGLVQPGGSLRLSCAASGFPFETDIMWWVRQAPGKGLEWVSVIGTNTDNVAYADSVKGRFTISRDNSKNTLYLQMNSLRAEDTAVYYCAREWMDHSRPYYYYGMDVWGQGTLVTVSS VL: SYELTQPPSVSVSPGQTASITCSGHNLEDKFASWYQQKPGQSPVLVIYRDDKRPSGIPERFSASNSGHTATLTISGTQATDEADYYCSSQDTVTRVFGGGTKLTVL — recorded pKd = 9.33

Entry Abet0329 scFv (scFv, V domains shown, not shown: small tags and cut ends, Purified scFv expressed in E. coli) VH: EVQLLESGGGLVQPGGSLRLSCAASTFNLKRETMWWVRQAPGKGLEWVSVIGSHQERTSYADSVKGRFTISRDNSKNTLYLQMNSLRAEDTAVYYCAREWMDHSRPYYYYGMDVWGQGTLVTVSS VL: SYELTQPPSVSVSPGQTASITCSGHNVSDKWMTWYQQKPGQSPVLVIYRDDKRPSGIPERFSASNSGHTATLTISGTQATDEADYYCSSQDTVTRVFGGGTKLTVL — recorded pKd = 9.15

Entry Abet0368 scFv (scFv, V domains shown, not shown: small tags and cut ends, Purified scFv expressed in E. coli) VH: EVQLLESGGGLVQPGGSLRLSCAASGFDFGPSPMWWVRQAPGKGLEWVSVIGKDTQNSTYADSVKGRFTISRDNSKDTLYLQMNSLKAEDTAVYYCAREWMDHSRPYYYYGMDVWGQGTLVTVSS VL: SYELTQPPSVSVSPGQTASITCSGHNLEDKFTSWYQQKSGQSPVLVIYRDDKRPSGIPERFSASNSGHTATLTISGAQATDEADYYCSSQDTVTRVFGGGTKLTVL — recorded pKd = 9.32

Entry Abet0377 scFv (scFv, V domains shown, not shown: small tags and cut ends, Purified scFv expressed in E. coli) VH: EVQLLESGGGLVQPGGSLRLSCAASGFNFNEQTLWWVRQAPGKGLEWVSVIGVGTKNIAYADTVKGRFTISRDNSKNTLYLQMNSLRAEDTAVYYCAREWMDHSRPYYYYGMDVWGQGTLVTVSS VL: SYELTQPPSVSVSPGQTASITCSGHNTEHKWISWYQQKPGQSPVLVIYRDDKRPSGIPERFSATNSGHTATLTISGTQATDEADYYCSSQDTVTRVFGGGTKLTVL — recorded pKd = 9.81

Entry Abet0323b scFv (scFv, V domains shown, not shown: small tags and cut ends, Purified scFv expressed in E. coli) VH: EVQLLESGGGLVQPGGSLRLSCAASTSTFQEDTMWWVRQAPGKGLEWVSVIGPNPKNNAYADSVKGRFTISRDNSKNTLYLQMNSLRAEDTAVYYCAREWMDHSRPYYYYGMDVWGQGTLVTVSS VL: SYELTQPPSVSVSPGQTASITCSGHNLEDKFASWYQQKPGQSPVLVIYRDDKRPSGVPERFSASNSGHTATLTISGTQATDEADYYCSSQDTVTRVFGGGTKLIVL — recorded pKd = 9.05

Entry Abet0332 scFv (scFv, V domains shown, not shown: small tags and cut ends, Purified scFv expressed in E. coli) VH: EVQLLESGGGLVQPGESLRLSCAASSDSWHTDIMWWVRQAPGKRLEWVSVIGNSNKKIAYADSVKGRFTISRDNSKNTLYLQMNSLRAEDTAVYYCAREWMDHSRPYYYYGMDVWGQGTLVTVSS VL: SYELTQPPSVSVSPGQTASITCSGHNIGAKWVSWYQQKPGQSPILVIYRDDKRPSGIPERFSASNSGHTATLTISGTQATDEADYYCQAQGQVTRSFGGGTKLTVL — recorded pKd = 9.41

Entry Abet0321b scFv (scFv, V domains shown, not shown: small tags and cut ends, Purified scFv expressed in E. coli) VH: EVQLLESGGGLVQPGGSLRLSCAASAYHSNHDPMWWVRQAPGKGLEWVSVIGSSGGTTAYADSVKGRFTISRDNSKNTLYLQMNSLRAEDTAVYYCAREWMDHSRPYYYYGMDVWGQGTLVTVSS VL: SYELTQPPSVSVSPGQTASITCSGHNLEDKFASWYQQKPGQSPVLIIYRDDKRPSGIPERFSASNSGHTATLTISGTQATDEADYYCSSQDTVTRVFGGGTKLTVL — recorded pKd = 9.65

Entry Abet0319 scFv (scFv, V domains shown, not shown: small tags and cut ends, Purified scFv expressed in E. coli) VH: EVQLLESGGGLVQPGGSLRLSCAASVSVYNKDTMWWVRQAPGKGLEWVSVIGSSGGTTVYADSVKGRFTISRDNSKNTLYLQMNSLRAEDTAVYYCAREWMDHSRPYYYYGMDVWGQGTLVTVSS VL: SYELTQPPSVSVSPGQTASITCSGHNIMDKWVSWYQQKPGRSPALVIYRDDKRPSGIPERFSASNSGHTATLTISGTQATDEADYYCSSQDTVTRVFGGGTKLTVL — recorded pKd = 9.41

Entry Abet0344 scFv (scFv, V domains shown, not shown: small tags and cut ends, Purified scFv expressed in E. coli) VH: EVQLLESGGGLVQPGGSLSLSCAASGFTFSVYTMWWVRQAPGKGLEWVSVIGGNETRKAYADSVKGRFTISRDNSKNRLYLQMNSLRAEDTAVYYCAREWMDHSRPYYYYGMDVWGQGTLVTVSS VL: QSVLTQPPSVSVSPGQTASITCSGHNLEDKFASWYQQKSGQSPVLVIYRDDKRPSGIPERFSASNSGHTATLTISGTQATDEADYYCATQDNFTRVFGGGTKLTVL — recorded pKd = 9.13

Entry Abet0381 scFv (scFv, V domains shown, not shown: small tags and cut ends, Purified scFv expressed in E. coli) VH: EVQLLESGGGLVQPGGSLRLSCAASSPSFPRETMWWVRQAPGKGLEWVSVIGTQPNRLTYADSVKGRFTISRDNSKNTLYLQMNSLRAEDTAVYYCAREWMDHSRPYYYYGIDVWGQGTLVTVSP VL: SYELTQPPSVSASPGQTASITCSGHNLEDKFVSWYQQKPGQSPVLVIYRDDKRPSGIPERFSASNSGHTATLTISGTQATDEANYYCSSQDTVTRAFGGGTKLTVL — recorded pKd = 9.62

Entry Abet0342 scFv (scFv, V domains shown, not shown: small tags and cut ends, Purified scFv expressed in E. coli) VH: EVQLLESGGGLVQPGGSLRLSCAASGFDFRRSVMWWVRQAPGKGLEWVSVIGAQTQNKAYADSVKGRFTISRDNSKNTLYLQMNSLRAEDTAVYYCAREWMDHSRPYYYYGMDVWGQGTLVTVSS VL: SYELTQPPSVSVSPGQTASITCSGHNLEDKFASWYQQKPGQSPVLVIYRDDKRPSGIPERFSASNSGDTATLTISGTQAMDEADYYCQAQDSTTRVFGGGTKLTVL — recorded pKd = 9.38
